Test: Cmax in mouse
Type: ADME, organism-based
Conditions: in vivo
reported_metric: Cmax (ng/mL)

chemical_smiles=COc1cc(-c2nn([C@H]3CC[C@H](N4CCN(C(C)=O)CC4)CC3)c3ncnc(N)c23)ccc1NC(=O)c1cc2ccccc2n1C value_reported=387

====

Experiment: Cmax in rat
Assay type: ADME, organism-based
Settings: in vivo
reported_metric: Cmax (µg/mL)

chemical_smiles=COc1cc(-c2nn([C@H]3CC[C@H](N4CCN(C(C)=O)CC4)CC3)c3ncnc(N)c23)ccc1NC(=O)c1cc2ccccc2n1C value_reported=2.08

FYI, the data here is from ChEMBL document CHEMBL1148543.
